System: SHP77;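 also: growth inhibition of human SHP-77 cells measured by a cell viability assay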
assay_protocol: cells
Assay type: functional, cell-based, Homo sapiens, SHP-77
conditions_used: Homo sapiens, SHP77
Description: SANGER: Inhibition of human SHP-77 cell growth in a cell viability assay.
Catalogue of IC50 readings, one per entry.

Q. Can you share its IC50? I mean this molecule: `CC1=C(/C=C/C(C)=C/C=C/C(C)=C/C(=O)O)C(C)(C)CCC1`
A. > 10 µM

Q. Could you do the same for `O=S(=O)(O)c1ccc2cc(/N=N/c3cc(S(=O)(=O)O)c4cccnc4c3O)ccc2c1` , please?
A. > 16 µM

Q. Could you do the same for `CS(=O)(=O)N1CCN(Cc2cc3nc(-c4cccc5[nH]ncc45)nc(N4CCOCC4)c3s2)CC1` , please?
A. > 4 µM

Q. Could you do the same for `NC(=O)Nc1cc(-c2cccc(F)c2)sc1C(=O)N[C@H]1CCCNC1` , please?
A. > 2 µM

Q. Could you do the same for `Nc1ccccc1NC(=O)c1ccc(CNC(=O)OCc2cccnc2)cc1` , please?
A. 4.01 µM

Q. Could you do the same for `Cc1ccc(-n2nc(C(C)(C)C)cc2NC(=O)Nc2ccc(OCCN3CCOCC3)c3ccccc23)cc1` , please?
A. > 10 µM

Q. Could you do the same for `Cc1cc(N2CCOCC2)cc2[nH]c(-c3c(NC[C@@H](O)c4cccc(Cl)c4)cc[nH]c3=O)nc12` , please?
A. > 5.12 µM

Q. Could you do the same for `COc1cc(N2CCC(N3CCN(C)CC3)CC2)ccc1Nc1ncc(Cl)c(Nc2ccccc2S(=O)(=O)C(C)C)n1` , please?
A. > 2 µM

Origin of the recorded values: ChEMBL document CHEMBL1201861
